- Test system: MDA-MB-468 breast
- protocol: NCI-60 one-dose screen, 48 h (100 = growth as untreated, 0 = no growth, -100 = all killed)
- experimentalContext: 10 µM unless noted
- Procedure: Growth inhibition of the MDA-MB-468 human Breast tumor cell line is measured as a screen for anti-cancer activity. Cells are grown in 96 well plates and exposed to the test compound for 48 hours. Compounds are tested at a single concentration, which is 10^-5 M for most compounds. The reported endpoint is percent growth (GI% or GIPRCNT), where numbers from 0 - 100% represent growth inhibition, and numbers from -100% - 0 represent cell death. […]
The panel holds about 83,000 compounds, 20% with a hit somewhere; the sample as a whole holds those more often.
Response field label: string, one of yes (1) (growth strictly below 70%) or no (0).

compound | assayTarget | labelValue
N#Cc1cnc2ccc(-c3cnc4[nH]ncc4c3)cc2c1N1CCc2cc(F)c(Cl)cc21 | MDA-MB-468 breast | yes (1)
Cc1c(C(=O)NCCC(=O)NO)sc2ncnc(Nc3ccc(F)c(Cl)c3)c12 | MDA-MB-468 breast | no (0)
O=C1CCC(N2Cc3c(C#CCCCNC(=O)c4cc5c(o4)C(=O)c4ccccc4C5=O)cccc3C2=O)C(=O)N1 (stereo not drawn) | MDA-MB-468 breast | yes (1)
CC1=C2[C@@H](CC1)[C@]1(C)O[C@@](C3CCCCC3)(C[C@H]1OC(=O)CO)[C@H]2OC(=O)/C=C/c1ccccc1 | MDA-MB-468 breast | no (0)
N#Cc1c(Nc2ccccc2)nn2cc(-c3nc4ccccc4s3)c(N)nc12 | MDA-MB-468 breast | no (0)
O=C(Nc1ccc(F)c(Cl)c1)Nc1ccc(Cl)c(Cl)c1 | MDA-MB-468 breast | yes (1)
NS(=O)(=O)c1ccc(CCN2C(=O)/C(=C\c3ccccc3)C=C2c2ccc(Cl)cc2)cc1 | MDA-MB-468 breast | no (0)
CCCCCCC12CCC(=O)N1CCc1cncn12 (stereo not drawn) | MDA-MB-468 breast | no (0)
O=C(Nc1ccc(F)c(F)c1)c1cc(-c2ccc(F)cc2F)ccc1O | MDA-MB-468 breast | yes (1)
C[C@]12O[C@H]1[C@H](O)c1c(cc(O)c3c1C(=O)c1cccc(O)c1-3)C2=O | MDA-MB-468 breast | no (0)
COc1ccc2c(CCC(c3ccccc3)c3ccccc3)c3[n+](cc2c1OC)CCc1cc2c(cc1-3)OCO2 | MDA-MB-468 breast | yes (1)
C=C(C=O)[C@@H]1CC[C@]2(C)[C@H](C(=O)C=C3[C@H]4C[C@](C)(C(=O)OC)CC[C@]4(C)CC[C@]32C)[C@@]1(C)CCC#N | MDA-MB-468 breast | no (0)
COc1cc2c(c(OC)c1OC)CCC(c1cccc(C(=O)Nc3cccc(Cl)c3)c1)O2 (stereo not drawn) | MDA-MB-468 breast | no (0)
CCN(CCN(C)C)C(=O)CNCc1cc(C(N)=O)ccn1 | MDA-MB-468 breast | no (0)
O=C1NC(SCc2ccc(F)cc2)=N/C1=C/c1cccc(OCc2ccc(Cl)cc2)c1 | MDA-MB-468 breast | yes (1)
COc1cc(/C=C2\C(=O)Nc3ccccc32)ccc1OCc1ccc(Cl)cc1 | MDA-MB-468 breast | no (0)
Cc1ccc(C(=O)Nc2ccc(CN3CCN(C)CC3)c(C(F)(F)F)c2)cc1C#Cc1cnc(N)c2ccc(C#N)cc12 | MDA-MB-468 breast | yes (1)
CCS/C(Nc1ccccc1)=C(\C#N)C(=O)N/N=C/c1ccc(Cl)cc1Cl | MDA-MB-468 breast | yes (1)
O=C1OCC2=C1C(c1cccc(Br)c1)c1cc3c(cc1N2CCO)OCCO3 (stereo not drawn) | MDA-MB-468 breast | yes (1)
O=C1/C(=C\c2cccn2C(=O)c2ccccc2)c2ccccc2N1c1c(Cl)cccc1Cl | MDA-MB-468 breast | yes (1)
CC1=C(C)C(=O)C(Nc2ccc(C)cc2)=C(Br)C1=O | MDA-MB-468 breast | yes (1)
COc1cc(C(=O)/C=C/c2cccnc2Nc2ccccc2)cc(OC)c1OC | MDA-MB-468 breast | yes (1)
CCOC(=O)c1c2c(n3ccc(NC(=O)CCN4CCCCC4)cc13)C(=O)c1ncccc1C2=O | MDA-MB-468 breast | no (0)
FC(F)(F)Oc1ccc2nc3nc4ccc[nH]c4cc3c2c1 | MDA-MB-468 breast | yes (1)
CN(C)CCCn1c2c(c3ccncc3c1=O)C(=O)c1ccccc1-2 | MDA-MB-468 breast | yes (1)
CC1CN(C(C)C)C(=S)N(c2ccccc2)C1=O (stereo not drawn) | MDA-MB-468 breast | no (0)

----------
- Test system: CAKI-1 renal
- protocol: NCI-60 one-dose screen, 48 h (100 = growth as untreated, 0 = no growth, -100 = all killed)
- experimentalContext: 10 µM
Compounds without any hit were thinned out: in the full panel of roughly 83,000, 20% have a hit.
Response field label: string, one of 1 (growth strictly below 10%) or -1.

compound | labelValue
Cc1ccc(-c2nc(C#N)c(S(=O)(=O)N3CCN(S(C)(=O)=O)CC3)o2)cc1 | -1
O=C(CN1CCN(c2ncnc3c2cnn3-c2ccccc2)CC1)Nc1ccc(Cl)cc1 | 1
O=C1NC(=S)S/C1=C\c1cn(-c2ccccc2)nc1-c1ccc([N+](=O)[O-])cc1 | -1
C#CCOc1cc(N(CC)CC)ccc1C(C(=O)NC(C)(C)C)N(C(=O)C1CCc2cc(F)ccc2O1)c1ccc(F)cc1F (stereo not given) | -1
O=C(CN1CCN(c2ncnc3c2cnn3-c2ccccc2)CC1)Nc1ccc(Br)cc1 | 1

----------
- Tested on: MDA-MB-468 breast
- protocol: NCI-60 one-dose screen, 48 h (100 = growth as untreated, 0 = no growth, -100 = all killed)
- experimentalContext: 10 µM unless noted
Compounds without any hit were thinned out: in the full panel of roughly 83,000, 20% have a hit. Active and inactive are the calls of the source. The calls were made as follows: active = growth percent below 10; inactive = the rest.

compound | growth
Nc1cc(C(=O)NC[C@H]2CN(c3ccc(N4CCC(C(=O)O)CC4)cc3)C(=O)O2)ccc1Cl | 99.4% (inactive)
O=c1[nH]c2cc(Cl)ccc2n1C1CCN(c2ccc3nnc(Cl)n3n2)CC1 | 85.3% (inactive)
CCC(O)(C(c1ccccc1)c1ccccn1)C(c1ccccc1)c1ccccn1 (centres undefined) | 114% (inactive)
CN(C)CCOc1cccc(-c2nc3sccn3c2-c2ccnc(S(C)(=O)=O)n2)c1 | 92% (inactive)
C=C(C)[C@@H]1CC[C@]2(C(=O)O)CC[C@]3(C)[C@H](CC[C@@H]4[C@@]5(C)C/C(=C/c6ccco6)C(=O)C(C)(C)[C@@H]5CC[C@]43C)[C@@H]12 | -27.1% [100 µM] (active)
COc1ccc(C(=O)c2cc(OC)c(OC)c(OC)c2)cc1OC(=O)C(Cl)(Cl)Cl | 35.8% (inactive)
CN1CCC(=C2c3ccccc3C=Cc3ccccc32)CC1 | 36% (inactive)
CC/C(=C/c1c(O)cccc1OC)c1ccc2c(OC)cccc2[o+]1 | 95.1% (inactive)
CC(C)C1=NOC(=O)C1=Cc1cn(-c2ccccc2)nc1-c1ccc(Cl)cc1 | 86.7% (inactive)
COc1ccc(OC)c([C@H]2c3[nH]c4ccccc4c3C[C@H]3C(=O)N(CCCCCCC(=O)NO)CC(=O)N23)c1 | 74.9% (inactive)
COc1cc2cc(Oc3ccc(NC(=O)Nc4cc(C(F)(F)F)cc(C(F)(F)F)c4)cc3)c(C)nc2cc1OCCN1CCCCC1 | -78.6% (active)
C=C1C(=O)O[C@H]2[C@H]1CC/C(COC(=O)C(=O)c1cn(C)c3ccc(OC)cc13)=C\CC[C@@]1(C)O[C@@H]21 | -63.6% (active)
Cc1nc2sc(C(=O)Nc3ccc(Cl)cc3)c(N)c2cc1C(O)c1ccccc1 (centres undefined) | -0.107% (active)
Cn1c(=O)c2c(nc(N3CCCC3)n2C)n(C)c1=O | 99.5% (inactive)
O=C(NC1CCN(Cc2ccccc2)CC1)c1cc(C(=O)NC2CCN(Cc3ccccc3)CC2)cc(C(=O)NC2CCN(Cc3ccccc3)CC2)c1 | 84.9% (inactive)
CC(C)(C)c1ccc(C(=O)Nc2sc3cc(O)ccc3c2C(N)=O)cc1 | 46.8% (inactive)
CCCNCC(=O)Nc1ccc(C(=O)OC(C)(C)CC)cc1 | 102% (inactive)
Cc1cc(C)c(CCc2cc(C)c(C)cc2C)cc1C | 109% (inactive)
C=C1C(=O)O[C@H]2[C@H]1CC/C(COC(=O)N[C@@H](Cc1c[nH]c3ccccc13)C(=O)OC)=C\CC[C@@]1(C)O[C@@H]21 | -16.4% (active)

----------
- Test system: K-562 leukemia
- protocol: NCI-60 one-dose screen, 48 h (100 = growth as untreated, 0 = no growth, -100 = all killed)
- experimentalContext: 10 µM
This is part of a sample that, as a whole, favours compounds with a hit. Of some 83,000 tested, about 20% had one in any assay.

compound | assayTarget | growth [%]
O=C(CC(=O)Nc1ccc(Oc2ncnc3scc(Nc4n[nH]c(=S)s4)c23)cc1)Nc1ccc(Br)cc1 | K-562 leukemia | 76.4
CC1(C)CC[C@]2(C(=O)O)CC[C@]3(C)C(=CCC4[C@@]5(C)C[C@@H](O)[C@@H]6OC(c7cccc(F)c7)OC[C@@]6(C)C5CC[C@]43C)C2C1 (stereo partly drawn) | K-562 leukemia | 21.1
Cn1cc(-c2nc(N)nnc2-c2c[nH]c3ccccc23)c2cc(Br)cnc21 | K-562 leukemia | 9.47
Cn1cc(-c2cc(N)n3nc(-c4cn(C)c5ccccc45)cc3n2)c2cc(F)ccc21 | K-562 leukemia | 0.146
O=[N+]([O-])c1cccc(-c2nnc3c(/C=C/c4ccccc4O)nc4ccccc4n23)c1 | K-562 leukemia | 24.1
COc1cc2oc(-c3cccc(C(=O)Nc4ccc(Cl)cc4)c3)cc(=O)c2c(OCCN)c1OC | K-562 leukemia | -43.9
Cc1cc(N=C2NC(=O)S/C2=C\c2ccc(F)cc2)n[nH]1 | K-562 leukemia | 15.4
O=C(CSc1nc2ccccc2c(=O)n1-c1ccc(Cl)cc1)Nc1ccc(-c2nc3ccc([N+](=O)[O-])cc3[nH]2)cc1 | K-562 leukemia | 28.9

Reference for the values: PubChem BioAssay (NCI)
